Source listed as patent US8252768B2.

tested on: uridine/cytidine kinase; experiment: Competition assay for substrates of uridine/cytidine kinase, crude extracts of T24 cells; type: biochemical, human; conditions: competitor 500 μM, substrate 3H-Cytidine 8.3 μM
Assign % Inhibitation (U/C kinase) to each entry below.
Answers are plain numbers, in %.

Before answering, review these 4 worked examples.
INSERT INTO results (compound, number) VALUES
  ('Nc1ccn([C@H]2C[C@H](O)[C@@H](CO)O2)c(=O)n1 [Deoxycytidine]', 20),
  ('O=c1[nH]c(=O)n([C@@H]2O[C@H](CO)[C@@H](O)[C@H]2O)cc1Cl [5-Chlorouridine]', 32),
  ('Nc1nc(=O)n([C@@H]2O[C@H](CO)[C@@H](O)[C@H]2O)cc1F [5-Fluorocytidine]', 66),
  ('Nc1nc(=O)n([C@H]2C[C@H](O)[C@@H](CO)O2)cc1F [5-Fluorodeoxycytidine, reference compound]', 4.8);

Below are some compounds; for each one, tell me its % Inhibitation (U/C kinase).
1. Nc1nc(=O)n([C@H]2C[C@H](O)[C@@H](CO)O2)cc1Cl [5-Chlorodeoxycytidine, 5-chloro-2′-deoxycytidine, reference compound]
2. Nc1ccn([C@@H]2O[C@H](CO)[C@@H](O)[C@H]2O)c(=O)n1 [Cytidine]
3. O=c1ccn([C@@H]2O[C@H](CO)[C@@H](O)[C@H]2O)c(=O)[nH]1 [Uridine]

1: 5.1; 2: 88; 3: 80

====

system: uridine/cytidine kinase; experiment: Competition assay for substrates of uridine/cytidine kinase, crude extracts of T24 cells; assay type: biochemical, human; details: competitor 250 μM, substrate 3H-Cytidine 8.3 μM
METRIC: % Inhibitation (U/C kinase)
Note: a bare number is incomplete; add the unit.

Before answering, review these 3 worked examples.
INSERT INTO results (molecular_string, metric, result) VALUES
  ('Nc1nc(=O)n([C@@H]2O[C@H](CO)[C@@H](O)[C@H]2O)cc1Cl', '% Inhibitation (U/C kinase)', '24%'),
  ('Nc1ccn([C@@H]2O[C@H](CO)[C@@H](O)[C@H]2O)c(=O)n1', '% Inhibitation (U/C kinase)', '85%'),
  ('Nc1nc(=O)n([C@@H]2O[C@H](CO)[C@@H](O)[C@H]2O)cc1F', '% Inhibitation (U/C kinase)', '51%');

Below are some compounds; for each one, tell me its % Inhibitation (U/C kinase).
1. O=c1ccn([C@@H]2O[C@H](CO)[C@@H](O)[C@H]2O)c(=O)[nH]1
2. Nc1ccn([C@H]2C[C@H](O)[C@@H](CO)O2)c(=O)n1
3. O=c1[nH]c(=O)n([C@@H]2O[C@H](CO)[C@@H](O)[C@H]2O)cc1Cl

1. 75%
2. 10%
3. 21%

====

Assign inhibition at 250 µM to each entry below.
molecular target: cytidine deaminase (CD) (Homo sapiens); construct: Crude extracts of PC-3 cells in culture were prepared as described above; endogenous in cells; host or cells: PC-3 cells (crude extract supernatant); assay: Competition assay for substrates of cytidine deaminase, crude extracts of PC-3 cells; type: biochemical; settings: competitor 250 μM; substrate 3H-Deoxycytidine 25 μM; ratio 10; PC-3 extracts
Sequence (P32320 whole entry): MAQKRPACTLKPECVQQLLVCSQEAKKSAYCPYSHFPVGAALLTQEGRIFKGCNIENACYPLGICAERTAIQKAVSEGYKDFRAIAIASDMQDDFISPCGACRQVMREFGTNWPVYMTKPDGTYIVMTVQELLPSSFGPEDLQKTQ
One number for each entry, in %.

Before answering, review these 4 worked examples.
INSERT INTO measurements (molecule, number) VALUES
  ('Nc1nc(=O)n([C@H]2C[C@H](O)[C@@H](CO)O2)cc1Cl [5-Chlorodeoxycytidine, 5-chloro-2′-deoxycytidine, reference compound]', 42),
  ('O=c1ccn([C@@H]2O[C@H](CO)[C@@H](O)[C@H]2O)c(=O)[nH]1', 2),
  ('Nc1nc(=O)n([C@H]2C[C@H](O)[C@@H](CO)O2)cc1I', 60),
  ('Nc1ccn([C@H]2C[C@H](O)[C@@H](CO)O2)c(=O)n1', 66);

// next entry
Fill in reported inhibition at 250 µM for this entry: Nc1nc(=O)n([C@H]2C[C@H](O)[C@@H](CO)O2)cc1F [5-Fluorodeoxycytidine, reference compound]
50
